- Test system: HL-60
- ASSAY_OVERVIEW: NCI tumour cell line growth inhibition, 48 h
Calls of active or inactive are those of the source. Cut-off read from the data, not from the text of the source: active = GI50 up to about 1.1 µM and inactive = higher.
VALUE_TYPE: GI50

Below, each entry is followed by its recorded GI50 result.
1) O=C(O)/C=N\N=c1[nH]c2ccccc2[nH]1 = > 100 µM (inactive)
2) CO/N=C(/C)c1cccc(Nc2nc3ccccc3c3[nH]c4ccccc4c23)c1 = 12.7 µM (inactive)

Provide each entry's GI50 from the list below.
1. CC(=O)OCC(OC(C)=O)C(OC(C)=O)C(OC(C)=O)C(/C=N\Nc1nc2ccccc2c(=O)[nH]1)OC(C)=O (configuration not stated)
2. COC(=O)[C@H](NC(=O)OC(C)(C)C)[C@H]1COC(C)(C)O1
3. Cc1cc(C)c(-n2[nH]c(=O)n(C)c2=O)c(C)c1
4. O=c1c2ccccc2nc(N/N=C/c2ccc([N+](=O)[O-])cc2)n1-c1ccccc1
5. CCCCCCCCOC(=O)c1cc([N+](=O)[O-])c(Sc2[nH]cnc3ncnc2-3)c([N+](=O)[O-])c1
6. Cc1ccc(-c2cc(-c3ccccc3)c(C#N)c(=O)[nH]2)cc1

> 100 µM (inactive)
> 100 µM (inactive)
> 100 µM (inactive)
> 100 µM (inactive)
1.52 µM (inactive)
> 100 µM (inactive)

Required: GI50, one value per compound below.
1. NC1=C(N2CCCCC2)C(=O)NC2=N/C(=C\c3ccccc3)C(=O)N21
2. COC1C=CC(C(=O)[N+]2=Cc3[nH]c4ccccc4c3CC2)O1 (configuration not stated)
3. C/C(CC(=O)Nc1ccc(C)cc1)=N\NC(N)=S
4. COC1OC(CBr)C(OC(=O)c2ccccc2)C(OS(=O)(=O)c2ccc(C)cc2)C1Br (configuration not stated)

32 µM (inactive)
32.3 µM (inactive)
> 100 µM (inactive)
> 100 µM (inactive)

###

- Test system: UACC-62
- ASSAY_OVERVIEW: NCI tumour cell line growth inhibition, 48 h
Calls of active or inactive are those of the source. Cut-off read from the data, not from the text of the source: active = GI50 up to about 1.1 µM and inactive = higher.
Pick one: active, inactive

1) Nc1nnc(O)c2c1c(I)cn2C1OC(CO)C(O)C1O (stereo not given) = inactive
2) COc1ccc2c(c1OC)C(C=C(c1ccccc1)c1ccccc1)CN(C)C2 (stereo not given) = inactive
3) Nc1nc(Nc2ccccc2)sc1C(=O)c1ccco1 = inactive
4) COc1c(OC)c(OC)c2c(=O)c(OC)c(-c3ccc4c(c3)OCO4)oc2c1OC = inactive

Each compound tested received a call. Report the one for C#CCN(N=O)C(=O)NCCCCC(NC(C)=O)C(=O)NCc1ccccc1 (stereo not given) .
inactive

Which outcome was entered for the compound `CC(=O)N[C@H]1CCCC[C@@H]1OC(C)=O` in this test?
inactive

What did the test return for `C[C@H](CCC(=O)NCC(=O)O)[C@H]1CC[C@H]2[C@@H]3[C@H](O)C[C@@H]4C[C@H](O)CC[C@]4(C)[C@H]3CC[C@]12C` ?
inactive

Could you please tell me the result logged for `C1CCN(c2nc(=[N+]3CCCCC3)ss2)CC1` in this assay?
inactive

Field: outcome | Entry: `CCOc1ccc(Nc2nc3c(s2)C(=O)c2ccccc2C3=O)cc1`
inactive

Fill in: this test's call for `O=c1c2ccccc2c(=O)n2n1CC=CC2` is ___
inactive

What did the test return for `CSC(=S)N(C)NC(=O)c1cccc(C(=O)NN(C)C(=S)SC)n1` ?
inactive

Hi, sorry to bother you, what did the test record for `CCn1c(=O)c2c3ccc(OC)cc3[nH]c2c2ccc(OC)cc21` ?
inactive

Short answer needed: outcome of this test for `Nc1nnc2oc3ccc4ccccc4c3cc1-2` ?
inactive

###

Exercise: state measured GI50 for each of the compounds provided.
- Test system: SN12C
- ASSAY_OVERVIEW: NCI tumour cell line growth inhibition, 48 h
Calls of active or inactive are those of the source. No stated cut-off is given here; in the data, active = GI50 up to about 1.1 µM and inactive = higher.

As a guide, the following entries are already answered.
1. O=C1CCNC(=O)NC1 = > 100 µM (inactive)
2. CC(=O)OCC(OC(C)=O)C(OC(C)=O)C(OC(C)=O)C(C=NN(C(C)=O)S(=O)(=O)c1ccc(/C=C2\NC(=O)N(C)C2=O)cc1)OC(C)=O (stereo not drawn) = 27.8 µM (inactive)
3. O=C(Nc1ccc(Cl)cc1Cl)C1C(=O)OC2(CCCCC2)OC1=O = 14.7 µM (inactive)
4. Cc1[nH]c2ccccc2c1C1Cc2ccccc2N1C(=O)/C=C\C(=O)O (stereo not drawn) = 29.3 µM (inactive)
5. O=NC1C(Cl)C2CC1C1C(Br)C(Br)CC21 (stereo not drawn) = > 100 µM (inactive)

Please give GI50, item by item, for the list that follows.
1. O=C(O)C/C=C/CC(=O)O
2. COc1c(OC)c(OC)c2c(=O)c(OC)c(-c3ccc4c(c3)OCO4)oc2c1OC
3. NC(=S)N/N=C(\Cc1nc2ccc(Cl)cc2nc1O)C(=O)Nc1ccc(Cl)cc1
4. Cc1c(-c2ccccn2)ccc2ccccc12
5. CC/C(Cl)=N\OC(=O)Nc1ccc(OC)cc1

1: 25.7 µM (inactive); 2: > 100 µM (inactive); 3: > 100 µM (inactive); 4: 61.1 µM (inactive); 5: 6.55 µM (inactive)

###

- Tested on: HCT-116
- ASSAY_OVERVIEW: NCI tumour cell line growth inhibition, 48 h
Activity calls are given as the source filed them. Rule as the data show it: active = GI50 up to about 1.1 µM and inactive = higher.
Pick from active, inactive when you respond.

Consider the worked cases shown below.
1. CSc1ccccc1P(c1ccccc1SC)c1ccccc1SC = inactive
2. CC(=O)O[C@H]1C(=O)[C@@]2(C)[C@H]([C@H](OC(=O)c3ccccc3)[C@]3(O)C[C@H](OC(=O)[C@H](O)[C@@H](NC(=O)c4ccc(N(C)C)cc4)c4ccccc4)C(C)=C1C3(C)C)[C@]1(OC(C)=O)CO[C@@H]1C[C@@H]2O = active
3. CC(CCN)(CCN)[N+](=O)[O-] = inactive
4. [N-]=[N+]=NC1(Cc2ccccc2)C(=O)c2cccc3c2N(CCC3)C1=O (stereo not given) = inactive
5. COc1ccc(C2=Nn3c(nnc3-c3ccccc3)S/C2=C\c2ccc(-c3ccc([N+](=O)[O-])cc3)o2)cc1 = inactive

Dear all, I need the recorded test outcome for COC(=O)C1=C(C)N(NC(=O)c2ccccc2)C(C)(O)C12CCOC2=O (stereo not given) , thank you.
inactive

Any idea what this test logged for Cc1ccc(S(=O)(=O)OC(c2ccc(Cl)cc2Cl)C2OC(=O)c3ccccc32)cc1 (stereo not given) ?
inactive

Called result for CC(C)C[C@H]1[C@@H](OCc2ccccc2)COS(=O)N1[C@H](C)c1ccccc1 (stereo not given in full)
inactive

Outcome logged for CC(=O)OCC1OC(n2c3c(cc(C#N)c2=S)CCC3)C(OC(C)=O)C(OC(C)=O)C1OC(C)=O (stereo not given) in this assay:
inactive

Please share the test call associated with `CCOC(=O)c1cc(C(=O)O)c(=O)n2c1[nH]c1ccccc12` .
inactive

Recorded test outcome, item `O=C1Nc2ccccc2/C1=C\c1c(Cl)n(-c2ccccc2)c2ccccc12`
inactive

Returns: the outcome recorded for `CC(=O)Nc1ccc(/C=c2\sc3nnc(/C=C/c4ccccc4)n3c2=O)cc1` in this assay.
inactive

###

For each entry below, report its GI50 value.
- System: TK-10
- ASSAY_OVERVIEW: NCI tumour cell line growth inhibition, 48 h
The source made the active and inactive calls. Rule as the data show it: active = GI50 up to about 1.1 µM and inactive = higher.

1) C[C@H](CCC1=NCCN1)[C@H]1CC[C@H]2[C@@H]3CC[C@@H]4C[C@H](O)CC[C@]4(C)[C@H]3C[C@H](O)[C@]12C = 14 µM (inactive)
2) O=C(/C=C1\Nc2ncccc2N=C1CC(=O)c1ccccc1)c1ccccc1 = 35.6 µM (inactive)
3) CCN(CC)/C(Sc1ccccc1)=C(\C(Cl)=C(Cl)Cl)[N+](=O)[O-] = 16.9 µM (inactive)

Provide reported GI50 for each item, in the same order as listed.
1. CN(C)CCNC(=O)c1cccc(CO)c1[N+](=O)[O-]
2. COC(=O)NN1C(=O)C(=P(c2ccccc2)(c2ccccc2)c2ccccc2)C(C(=O)OC)=C1C

1: > 100 µM (inactive); 2: > 100 µM (inactive)

###

- Test system: CAKI-1
- ASSAY_OVERVIEW: NCI tumour cell line growth inhibition, 48 h
Active and inactive are the calls of the source. No stated cut-off is given here; in the data, active = GI50 up to about 1.1 µM and inactive = higher.
Please respond with reported GI50 for every item in the list.

The examples below pair each entry with its known result.
1) CCc1ccccc1NC(=O)C(=O)C(C#N)c1c(Cl)cccc1Cl (configuration not stated) = > 100 µM (inactive)
2) NCCSc1nc(-c2ccccc2)c(-c2ccccc2)o1 = > 100 µM (inactive)
3) CCOc1ccc(/N=N/c2c(-c3ccccc3)nn(C(=O)CC(=O)Nc3ccccc3Cl)c2-c2ccccc2)cc1 = 23.4 µM (inactive)
4) N#CC(NNC(=O)c1ccccc1O)c1c(O)ccc2ccccc12 (configuration not stated) = 4.18 µM (inactive)
5) O=C(O)C1OC1(c1cccc(Cl)c1)c1ccccc1Cl (configuration not stated) = 20.5 µM (inactive)
6) CS(=O)(=O)OC1CCC2(C#N)CCC1C2=O (configuration not stated) = > 100 µM (inactive)
7) O=c1c2ccccc2nc(N/N=C/c2ccc([N+](=O)[O-])cc2)n1-c1ccccc1 = 21.6 µM (inactive)
8) NC(=S)NNCC(=O)CC(O)(C(F)(F)F)C(F)(F)Cl (configuration not stated) = > 100 µM (inactive)

Give measured GI50 for every item shown.
1. COc1ccccc1/C=C/c1ccnc2ccccc12
2. COC(=O)C1(NC(=O)C(N)CC(=O)O)C(C)C1C (configuration not stated)
3. O=[N+]([O-])c1nccn1CCCNc1c2ccccc2[n+]([O-])c2ccccc12

["14.6 µM (inactive)", "> 100 µM (inactive)", "> 100 µM (inactive)"]
